# pIC50 per record follows
- Tested target: Human PD-L1/PD-1 (Homo sapiens, UniProt Q9NZQ7)
- Construct: made in house; host or cells: HEK293T
- Sequence (Q9NZQ7 with tags, fused parts or gaps): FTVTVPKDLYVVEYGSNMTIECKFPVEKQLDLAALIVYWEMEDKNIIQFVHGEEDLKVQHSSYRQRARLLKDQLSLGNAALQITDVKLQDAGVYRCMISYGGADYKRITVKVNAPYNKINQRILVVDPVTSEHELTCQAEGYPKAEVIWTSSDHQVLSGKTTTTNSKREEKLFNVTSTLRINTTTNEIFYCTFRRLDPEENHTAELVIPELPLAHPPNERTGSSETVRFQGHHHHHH
- Test description: HTRF PD-1-Ig/PD-L1-His binding assay (human PD-L1)
- Run conditions: cluster symbol; read-out: HTRF IC50 cluster
pIC50: −log10 of the molar value. Positions of bridges follow the written chain, without caps; N, C: chain ends. Non-standard residues stand in square brackets, D forms with d. Residues, ends and D or L forms follow the SMILES beside them. ξ: configuration not given here. Phe(4-CH2NH2) = NCc1ccc(C[C@H](N)C(=O)O)cc1; Phe(3-F) = N[C@@H](Cc1cccc(F)c1)C(=O)O; Phe(3-Me) = Cc1cccc(C[C@H](N)C(=O)O)c1; Bta = N[C@@H](Cc1csc2ccccc12)C(=O)O; Hyp = O=C(O)[C@@H]1C[C@@H](O)CN1; NMeF = CN[C@@H](Cc1ccccc1)C(=O)O; NMeNle = CCCC[C@H](NC)C(=O)O; NMeM = CN[C@@H](CCSC)C(=O)O; NMeA = CN[C@@H](C)C(=O)O; Dap = NC[C@H](N)C(=O)O; ξC = NC(CS)C(=O)O; Sar = CNCC(=O)O

Molecule: CCCC[C@H]1C(=O)N(C)[C@@H](CCCC)C(=O)N[C@@H](CCCNC(=N)N)C(=O)N[C@H](C(=O)NCC(N)=O)CSCC(=O)N[C@@H](Cc2cccc(C)c2)C(=O)N(C)[C@@H](C)C(=O)N[C@@H](CC(N)=O)C(=O)N2CCC[C@H]2C(=O)N[C@@H](Cc2cnc[nH]2)C(=O)N[C@@H](CC(C)C)C(=O)N(C)CC(=O)N[C@@H](Cc2c[nH]c3ccccc23)C(=O)N[C@@H](CO)C(=O)N[C@@H](Cc2c[nH]c3ccccc23)C(=O)N1C [Example 1097] ({CH2CO}-[Phe(3-Me)][NMeA]NPHL[Sar]WSW[NMeNle][NMeNle]RCG-NH2; thioether N-14)
Tested target: Human PD-L1/PD-1 (Homo sapiens, UniProt Q9NZQ7)
pIC50: 7.52 to 8.17
--
Molecule: CCCC[C@H]1C(=O)N(C)CC(=O)N[C@@H](CC(=O)O)C(=O)N[C@@H](C(C)C)C(=O)N(C)[C@@H](Cc2ccccc2)C(=O)N[C@@H](Cc2ccc(CN)cc2)C(=O)N(C)CC(=O)N[C@@H](Cc2csc3ccccc23)C(=O)N[C@@H](Cc2ccc(O)cc2)C(=O)N[C@@H](CC(C)C)C(=O)N[C@H](C(=O)NCC(N)=O)CSCC(=O)N[C@@H](Cc2cccc(F)c2)C(=O)N(C)[C@@H](Cc2ccccc2)C(=O)N1C [Example 3121] ({CH2CO}-[Phe(3-F)][NMeF][NMeNle][Sar]DV[NMeF][Phe(4-CH2NH2)][Sar][Bta]YLCG-NH2; thioether N-13)
Tested target: Human PD-L1/PD-1 (Homo sapiens, UniProt Q9NZQ7)
pIC50: 7.52 to 8.17

Here's the next entry for you.
Request: Give pIC50 (Human PD-L1/PD-1 (Homo sapiens, UniProt Q9NZQ7)) of the following molecule: CCCC[C@H]1C(=O)N(C)[C@@H](CCSC)C(=O)N[C@@H](C)C(=O)NC(C(=O)NCC(N)=O)CSCC(=O)N[C@@H](Cc2ccc(O)cc2)C(=O)N(C)[C@@H](C)C(=O)N[C@@H](CC(N)=O)C(=O)N2CCC[C@H]2C(=O)N[C@@H](CN)C(=O)N[C@@H](CC(C)C)C(=O)N2C[C@H](O)C[C@H]2C(=O)N[C@@H](Cc2c[nH]c3ccccc23)C(=O)N[C@@H](CO)C(=O)N[C@@H](Cc2csc3ccccc23)C(=O)N1C (some centres unmarked) [Example 9088] ({CH2CO}-Y[NMeA]NP[Dap]L[Hyp]WS[Bta][NMeNle][NMeM]A[ξC]G-NH2; thioether N-14)
Response: 8.17 to 9.41
